Please provide measured growth for the entries that follow.
- Test system: DU-145 prostate
- ASSAY_REMARKS: NCI-60 one-dose screen, 48 h (100 = growth as untreated, 0 = no growth, -100 = all killed)
- TEST_SETTINGS: 10 µM unless noted
This is part of a sample that, as a whole, favours compounds with a hit. Of some 83,000 tested, about 20% had one in any assay.
Answer format: numeric, % implied, no suffix.

Can you share its growth? I mean this compound: c1n[nH]cc1-c1nc2ccc3[nH]ncc3c2c2c1CCCC2
20.4

Can you share its growth? I mean this compound: CCCCCc1ccc(S(=O)(=O)Nc2cccc(-c3csc(NC(=O)CN4CCN(C)CC4)n3)c2)cc1
82.4

Can you share its growth? I mean this compound: CS(=O)(=O)Nc1cc(-c2ccc3ncc(C#N)c(Nc4cccc(Cl)c4F)c3c2)cnc1Cl
11.9

Can you share its growth? I mean this compound: CCO/C=N/C1=C(C#N)C(c2ccc(F)cc2)c2sc3c(CC)cccc3c2O1 (stereo not drawn)
19.3

Can you share its growth? I mean this compound: COc1ccc2[nH]cc(/C=N/Nc3nc4ccccc4s3)c2c1
60.3

Can you share its growth? I mean this compound: CCC(NC(c1cc2cccc3ccc4cccc1c4c32)c1nnnn1C(C)(C)C)C1CCCCC1 (stereo not drawn)
69.7

Can you share its growth? I mean this compound: Cc1ccc(NC(=O)c2ccc(CN3CCN(C)CC3)cc2)cc1Oc1ccc(-c2[nH]nc3ncnc(N)c23)cc1
106

Can you share its growth? I mean this compound: Cc1cc(S(=O)(=O)N(C)C)cc(NCC(=O)NC(=O)NCC(C)C)c1C
85.1

----------
- System: CCRF-CEM leukemia
- ASSAY_REMARKS: NCI-60 one-dose screen, 48 h (100 = growth as untreated, 0 = no growth, -100 = all killed)
- TEST_SETTINGS: 10 µM unless noted
About 83,000 compounds went through this panel and 20% of them were active in at least one assay; those are over-represented in the sample as a whole. Activity calls are given as the source filed them. Rule for the calls: active = growth percent below 10; inactive = the rest.
RECORDED_METRIC: growth

Can you share its growth? I mean this molecule: CC(=O)N(C)C1CCc2c(sc(NC(=O)c3ccc(C(C)(C)C)cc3)c2C(N)=O)C1 (centres undefined)
69.3% (inactive)

Can you share its growth? I mean this molecule: COc1cc(OC)c(/C=C/S(=O)(=O)Cc2ccc(OC)c(NC(=O)CCC(=O)NO)c2)c(OC)c1
11.5% (inactive)

Can you share its growth? I mean this molecule: C=CCOc1cccc(/C=C2\SC(=S)N(C3CC(=O)N(c4ccc(Br)cc4)C3=O)C2=O)c1 (centres undefined)
96.7% (inactive)

Can you share its growth? I mean this molecule: COc1ccc(S(=O)(=O)NCCCNc2nccc(-c3[nH]c(-c4ccccc4)nc3-c3ccc(Cl)c(O)c3)n2)cc1
40.3% (inactive)

----------
- System: CCRF-CEM leukemia
- ASSAY_REMARKS: NCI-60 one-dose screen, 48 h
- TEST_SETTINGS: 10 µM unless noted
- Procedure: Growth inhibition of the CCRF-CEM human tumor cell line is measured as a screen for anti-cancer activity. Cells are grown in 96 well plates and exposed to the test compound for 48 hours. Compounds are tested at a single concentration, which is 10^-5 M for most compounds. The reported endpoint is percent growth (GI% or GIPRCNT), where numbers from 0 - 100% represent growth inhibition, and numbers from -100% - 0 represent cell death. For example, a value of 40 represents 60% growth inhibition. […]
This is part of a sample that, as a whole, favours compounds with a hit. Of some 83,000 tested, about 20% had one in any assay. The source made the active and inactive calls. How the source made its calls: active means growth percent below 10; inactive means the rest.
Valid outcomes are listed here; reply with one: active, inactive

Which outcome did this test record for the compound COc1cc(OC)c(S(N)(=O)=O)cc1C(C)=O ?
inactive

Which outcome did this test record for the compound CC/C(=C/c1cc(OC)ccc1O)c1ccc2cc(OC)ccc2[o+]1 ?
inactive

Which outcome did this test record for the compound Nc1nc(-c2cccc([N+](=O)[O-])c2)c(N=Nc2cccc([N+](=O)[O-])c2)s1 ?
inactive

Which outcome did this test record for the compound CCOC(=O)C(=O)/C(=C\c1ccc(Cl)cc1)C(=O)N1C(=S)NC(=O)C1CC(C)C (centres undefined) ?
inactive

Which outcome did this test record for the compound COc1ccc2c(c1)c(CC(=O)[Se]CCC#N)c(C)n2C(=O)c1ccc(Cl)cc1 ?
active

Which outcome did this test record for the compound Cc1nc2ncc(-c3ccc4ncnc(NCc5ccccc5)c4c3)cc2[nH]1 ?
inactive

Which outcome did this test record for the compound COc1ccc(C(=O)c2c(N)c(C#N)cn2-c2ccccc2OC)cc1 ?
inactive

Which outcome did this test record for the compound Cn1cc(-c2nc(N)nnc2-c2c[nH]c3ccccc23)c2cc(Br)ccc21 ?
active

Which outcome did this test record for the compound O=C(/C=C/c1ccc(F)cc1)c1ccc(O)cc1 ?
inactive

----------
- System: K-562 leukemia
- ASSAY_REMARKS: NCI-60 one-dose screen, 48 h (100 = growth as untreated, 0 = no growth, -100 = all killed)
- TEST_SETTINGS: 10 µM unless noted
The panel holds about 83,000 compounds, 20% with a hit somewhere; the sample as a whole holds those more often. Activity calls are given as the source filed them. How the source made its calls: active means growth percent below 10; inactive means the rest.
Please provide measured growth for the entries that follow.

Can you share its growth? I mean this compound: COc1ccc(C(=O)Nc2ncc(Cc3ccccc3Cl)s2)cc1
7.56% (active)

Can you share its growth? I mean this compound: CCN(CC)CCn1c2ccc(O)cc2c2sc3cc(OC)ccc3c(=O)c21
-34.8% (active)

Can you share its growth? I mean this compound: COc1cc(-c2nnc(SCc3ccc(O)c4ncccc34)n2-c2ccccc2)cc(OC)c1OC
4.83% (active)

Can you share its growth? I mean this compound: CCO/C=N/C1=C(C#N)C(c2ccc(F)cc2)c2sc3c(C)cccc3c2O1 (stereo not drawn)
10.4% (inactive)

Can you share its growth? I mean this compound: NS(=O)(=O)c1ccc(Nc2nc(N/N=C/c3ccc(Cl)cc3)nc(Nc3ccccc3)n2)cc1
59.9% (inactive)

Can you share its growth? I mean this compound: CC1(C)[C@@H](O)CC[C@]2(C)[C@H]3CC[C@@H]4[C@H]5[C@H](C(=O)/C=C\c6ccc([N+](=O)[O-])cc6)CC[C@]5(O)CC[C@@]4(C)[C@]3(C)CC[C@@H]12
27.3% (inactive)

Can you share its growth? I mean this compound: COC(=O)C[Se]C(=O)Cc1c(C)n(C(=O)c2ccc(Cl)cc2)c2ccc(OC)cc12
54% (inactive)

Can you share its growth? I mean this compound: Cc1ccc(-n2cc(/C=C/C(=O)c3ccc(O)cc3)c(-c3ccc(S(C)(=O)=O)cc3)n2)cc1
17.8% (inactive)

Can you share its growth? I mean this compound: O=C(CN1CCN(c2cc(=O)n(-c3ccccc3)c3ccccc23)CC1)Nc1cccc(C(F)(F)F)c1
23.4% (inactive)

Can you share its growth? I mean this compound: c1cc(-c2nc3ccc4[nH]ncc4c3c3c2CCCC3)[nH]n1
64% (inactive)

Can you share its growth? I mean this compound: CC1(C)NCCC[C@]2(C)[C@H]3C/C(=N\O)C4[C@@H]5C[C@@](C)(CO)CC[C@]5(C)CC[C@@]4(C)[C@]3(C)CC[C@@H]12 (stereo partly drawn)
80.7% (inactive)

Can you share its growth? I mean this compound: C=CCN(C)S(=O)(=O)/N=C1\NC(=O)NC1=C(Cl)Cl
-3.52% (active)

Can you share its growth? I mean this compound: Cc1ccc(C(=O)NN2C(=O)/C(=C/C=C/c3ccco3)SC2=S)cc1
49.3% (inactive)

Can you share its growth? I mean this compound: CC(C)C[C@@H]1N[C@@]2(C(=O)Nc3ccccc32)[C@@H](c2ccc(F)cc2)[C@@H]1C(=O)c1ccc(O)cc1
89.7% (inactive)

Can you share its growth? I mean this compound: Cn1ccnc1C(=O)/C=C/c1ccc(CNC(=O)c2c(F)c(F)c(F)c(F)c2F)cc1
21.1% (inactive)

Can you share its growth? I mean this compound: CC(=O)N(C)C1CCc2c(sc(NC(=O)c3ccc(C(C)(C)C)cc3)c2C(N)=O)C1 (stereo not drawn)
62.3% (inactive)

Can you share its growth? I mean this compound: CCC(CC)N1C(=O)/C(=c2\sc3n(c2=O)NC2C(N=3)N(CC)C(=O)N2CC)c2ccccc21 (stereo not drawn)
26% (inactive)

Can you share its growth? I mean this compound: O=c1[nH]c2ccccc2cc1CSc1ccccc1Nc1nccc(-c2ccc(Cl)cc2)n1
94.7% (inactive)

Can you share its growth? I mean this compound: N#Cc1c(NC(=O)c2cccc(C(F)(F)F)c2F)sc2c1CCC(=O)C2
1.31% (active)

Can you share its growth? I mean this compound: NC(=O)c1c(NC(=O)c2ccccc2C(F)(F)F)sc2c1CCC(=O)C2
11.7% (inactive)

Can you share its growth? I mean this compound: NS(=O)(=O)c1ccc(Nc2nc(SCC(=O)c3ccc(Cl)cc3)nc3c2CCCC3)cc1
27.9% (inactive)

Can you share its growth? I mean this compound: COc1cc(-c2nc(SCCC(C)C)nc(NNC(=O)c3ccncc3)c2C#N)cc(OC)c1OC
74.6% (inactive)

Can you share its growth? I mean this compound: NC(N)=Nc1ccc(Oc2cccc(Nc3ccc(Br)c(C(F)(F)F)c3)c2)cc1
-11.1% (active)

Can you share its growth? I mean this compound: COc1cc(Cn2cc3c(c2)-c2onc(CN4CCCC4)c2CC3)cc(OC)c1OC
59.9% (inactive)

Can you share its growth? I mean this compound: CNC(=O)c1cc(-n2ccc3cc(NC(=O)Nc4ccc(N5CCOCC5)c(C(F)(F)F)c4)ccc32)ccn1
4.09% (active)

Can you share its growth? I mean this compound: FC(F)(F)c1cc(Nc2cccc(Oc3ccc(NC4=NCCN4)nc3)c2)ccc1Cl
-19% (active)

Can you share its growth? I mean this compound: N/C(=N\C(N)=N\c1nc2ccccc2s1)c1cccc(F)c1
89.2% [5 µM] (inactive)

Can you share its growth? I mean this compound: Cc1cc(C)c(N2C(=O)CC(Nc3ccc(Cl)cc3Cl)C2=O)c(C)c1 (stereo not drawn)
102% (inactive)

Can you share its growth? I mean this compound: COc1ccc(/C(N)=N/C(N)=N/c2nc3ccccc3s2)cc1
32.9% (inactive)

Can you share its growth? I mean this compound: CC(O)c1cc2ccccc2c(=O)o1 (stereo not drawn)
101% (inactive)

Can you share its growth? I mean this compound: COc1cc(C2N=C(NNc3ccccc3)NC(C)=C2C(C)=O)ccc1O (stereo not drawn)
66.8% (inactive)

Can you share its growth? I mean this compound: CC1(C)CC[C@]2(C(=O)O)CC[C@]3(C)C(=CC[C@@H]4[C@@]5(C)CC/C(=N\OCCC#N)C(C)(C)[C@@H]5CC[C@]43C)[C@@H]2C1
109% (inactive)

Can you share its growth? I mean this compound: O=C(Nc1nc2ccc([N+](=O)[O-])cc2s1)Nc1ccccc1Cl
20.6% (inactive)

src = PubChem BioAssay (NCI)
